# Lookup of reported GI50 keyed by entry
Tested on: UO-31
Experiment: NCI tumour cell line growth inhibition, 48 h
Activity calls are given as the source filed them. Cut-off read from the data, not from the text of the source: active = GI50 up to about 1.1 µM and inactive = higher.

Record excerpt, results attached:
[[record]]
molecule = "O=C(Cc1nc2ccccc2o1)C(=O)Nc1ccc(Cl)cc1Cl"
result = "> 100 µM (inactive)"

[[record]]
molecule = "CC(C)(C)OC(=O)N(O)[C@@H]1CC[C@H](n2cnc3c(N)ncnc32)C1"
result = "96.8 µM (inactive)"

[[record]]
molecule = "CC1(C)CC(=O)C2=C(C1)NC1=C(C(=O)CC(C)(C)C1)C2c1ccc([N+](=O)[O-])cc1"
result = "> 100 µM (inactive)"

[[record]]
molecule = "CC1=NN(c2nc(N)nc(-c3sccc3N)n2)C(C)(C)C1"
result = "> 100 µM (inactive)"

[[record]]
molecule = "Cc1ccc2c(c1)C(=O)c1ccc(C)nc1C2=O"
result = "40.9 µM (inactive)"


Measured GI50, O=C1CSC(c2c[nH]c3ccccc23)N1c1cccc(Cl)c1 (stereo not given) : 84.5 µM (inactive)

Measured GI50, `CCN(CC)CC/N=c1\c2cc(OC)ccc2[nH]c2c([N+](=O)[O-])ccc(NCCN(CC)CC)c12` : 1.17 µM (inactive)

Measured GI50, Fc1cccc(F)c1C1SCc2nc3ccc(Cl)cc3n21 (stereo not given) : > 100 µM (inactive)

Measured GI50, `CN(N)/N=N/c1[nH]cnc1[N+](=O)[O-]` : 61.1 µM (inactive)

Measured GI50, `CC(=O)O[C@H]1[C@@H](OC(C)=O)C(C)(C)/C=C/[C@H](C)C(=O)[C@@]2(OC(C)=O)C[C@@](C)(OC(C)=O)[C@H](OC(C)=O)[C@@H]2[C@H]2OC(=O)CC[C@@]2(OC(=O)c2ccccc2)[C@@H]1OCC(C)C` : 22.2 µM (inactive)
